study target: PDGFRα (Homo sapiens, UniProt P16234)
Sequence (P16234 24-1089): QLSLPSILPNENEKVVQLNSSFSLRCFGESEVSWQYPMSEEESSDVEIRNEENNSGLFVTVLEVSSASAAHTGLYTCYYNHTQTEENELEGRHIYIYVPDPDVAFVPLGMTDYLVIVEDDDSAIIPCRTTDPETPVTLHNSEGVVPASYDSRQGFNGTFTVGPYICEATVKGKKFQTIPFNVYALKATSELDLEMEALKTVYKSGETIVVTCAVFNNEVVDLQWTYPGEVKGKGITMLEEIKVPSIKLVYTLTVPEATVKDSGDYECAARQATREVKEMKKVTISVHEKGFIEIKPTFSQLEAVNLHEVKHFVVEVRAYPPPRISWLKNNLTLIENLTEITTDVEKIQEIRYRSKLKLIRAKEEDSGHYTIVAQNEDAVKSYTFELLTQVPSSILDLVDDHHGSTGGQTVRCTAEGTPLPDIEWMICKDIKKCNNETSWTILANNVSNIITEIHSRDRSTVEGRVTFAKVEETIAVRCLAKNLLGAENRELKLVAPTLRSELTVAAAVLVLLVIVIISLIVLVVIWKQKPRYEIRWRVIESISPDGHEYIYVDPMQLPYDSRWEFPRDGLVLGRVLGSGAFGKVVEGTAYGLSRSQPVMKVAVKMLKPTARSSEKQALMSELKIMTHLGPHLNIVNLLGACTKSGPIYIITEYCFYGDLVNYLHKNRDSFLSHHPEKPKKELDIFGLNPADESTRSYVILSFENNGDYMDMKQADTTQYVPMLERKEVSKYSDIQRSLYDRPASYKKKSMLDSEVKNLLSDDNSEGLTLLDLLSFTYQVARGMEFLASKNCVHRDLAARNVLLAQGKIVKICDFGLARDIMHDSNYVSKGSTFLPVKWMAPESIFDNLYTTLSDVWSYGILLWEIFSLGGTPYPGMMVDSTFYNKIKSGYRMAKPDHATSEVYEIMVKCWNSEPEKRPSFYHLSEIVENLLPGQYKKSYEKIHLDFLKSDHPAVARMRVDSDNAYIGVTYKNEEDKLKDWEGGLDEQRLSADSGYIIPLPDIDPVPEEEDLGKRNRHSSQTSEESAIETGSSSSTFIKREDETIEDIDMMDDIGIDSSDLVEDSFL
pIC50: −log10 of the molar value.
experimental readout: pIC50

compound	meas value
Cc1ccccc1NS(=O)(=O)c1ccc2c(c1)/C(=C/c1nc3ccccc3[nH]1)C(=O)N2 [Indo5]	< 5.00

###

run description: Half-life in plasma
Assay type: in vitro ADME
condition parameters: data not shown

smiles input	measurement unit	half-life
Cc1ccccc1NS(=O)(=O)c1ccc2c(c1)/C(=C/c1nc3ccccc3[nH]1)C(=O)N2	min	5

###

study target: EGFR (Homo sapiens)
Sequence (P00533 25-1210): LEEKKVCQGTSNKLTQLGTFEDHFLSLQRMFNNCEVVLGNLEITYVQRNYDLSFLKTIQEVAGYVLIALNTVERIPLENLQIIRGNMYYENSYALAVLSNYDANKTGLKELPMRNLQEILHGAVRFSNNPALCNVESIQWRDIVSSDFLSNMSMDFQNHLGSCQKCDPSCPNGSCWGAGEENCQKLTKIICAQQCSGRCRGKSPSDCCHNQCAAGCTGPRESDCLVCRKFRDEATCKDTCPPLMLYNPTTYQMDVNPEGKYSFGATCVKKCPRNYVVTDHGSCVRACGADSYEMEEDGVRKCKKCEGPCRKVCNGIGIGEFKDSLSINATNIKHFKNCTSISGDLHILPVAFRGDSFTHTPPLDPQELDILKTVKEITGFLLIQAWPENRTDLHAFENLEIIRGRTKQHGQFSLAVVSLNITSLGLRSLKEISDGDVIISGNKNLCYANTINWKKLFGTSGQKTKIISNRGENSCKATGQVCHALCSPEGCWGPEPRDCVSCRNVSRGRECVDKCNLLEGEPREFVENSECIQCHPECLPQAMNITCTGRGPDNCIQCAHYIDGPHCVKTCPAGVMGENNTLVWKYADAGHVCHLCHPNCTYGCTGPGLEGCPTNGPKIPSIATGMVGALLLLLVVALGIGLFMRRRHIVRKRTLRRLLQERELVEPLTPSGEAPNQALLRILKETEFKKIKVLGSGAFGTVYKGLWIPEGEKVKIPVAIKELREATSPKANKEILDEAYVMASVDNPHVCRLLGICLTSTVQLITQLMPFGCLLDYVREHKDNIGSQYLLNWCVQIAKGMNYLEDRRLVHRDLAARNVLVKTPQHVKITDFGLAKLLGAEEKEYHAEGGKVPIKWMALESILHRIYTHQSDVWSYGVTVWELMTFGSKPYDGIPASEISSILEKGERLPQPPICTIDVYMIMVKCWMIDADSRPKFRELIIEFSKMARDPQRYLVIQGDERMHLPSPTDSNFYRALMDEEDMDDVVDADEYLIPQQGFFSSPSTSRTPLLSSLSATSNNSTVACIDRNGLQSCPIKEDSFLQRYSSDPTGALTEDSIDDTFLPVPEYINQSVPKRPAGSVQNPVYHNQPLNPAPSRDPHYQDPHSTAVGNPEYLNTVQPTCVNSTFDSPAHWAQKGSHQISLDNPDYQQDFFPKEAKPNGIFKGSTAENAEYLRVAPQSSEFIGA
experimental readout: IC50

smiles input	experimental readout	meas value
Cc1ccccc1NS(=O)(=O)c1ccc2c(c1)/C(=C/c1nc3ccccc3[nH]1)C(=O)N2	IC50	> 10 µM
